Tested on: OVCAR-4 ovarian
MEASUREMENT DESCRIPTION: NCI-60 one-dose screen, 48 h
MEASUREMENT CONTEXT: 10 µM unless noted
Description: Growth inhibition of the OVCAR-4 human tumor cell line is measured as a screen for anti-cancer activity. Cells are grown in 96 well plates and exposed to the test compound for 48 hours. Compounds are tested at a single concentration, which is 10^-5 M for most compounds. The reported endpoint is percent growth (GI% or GIPRCNT), where numbers from 0 - 100% represent growth inhibition, and numbers from -100% - 0 represent cell death. For example, a value of 40 represents 60% growth inhibition. […]
The panel holds about 83,000 compounds, 20% with a hit somewhere; the sample as a whole holds those more often. Activity calls are given as the source filed them. Rule for the calls: active = growth percent below 10; inactive = the rest.
Parameter call: string, one of 1 (yes) (active), 0 (no) (inactive)

INSERT INTO results (compound, answer_label) VALUES
  ('CN(C)c1ccc(C(=C2C=CC(=[N+](C)C)C=C2)c2ccc(N(C)C)cc2)cc1', '1 (yes)'),
  ('S=C=Nc1ccc(N2CCOCC2)cc1', '0 (no)'),
  ('CCCCCCCCCCCCCCCc1ccc(C(=O)C[n+]2ccccc2)cc1', '0 (no)'),
  ('CCCOS(=O)(=O)c1ccccc1', '0 (no)'),
  ('CCCCC(C=O)(C=C=C(C)C)CC (configuration not stated)', '0 (no)');

We next turn to a different compound, shown below.
Entry CCCCCCCCCCCC[n+]1ccc2ccccc2c1 : call = ?
1 (yes)

---

Test system: NCI-H460 lung
MEASUREMENT DESCRIPTION: NCI-60 one-dose screen, 48 h (100 = growth as untreated, 0 = no growth, -100 = all killed)
MEASUREMENT CONTEXT: 10 µM unless noted
About 83,000 compounds went through this panel and 20% of them were active in at least one assay; those are over-represented in the sample as a whole.
METRIC NAME: growth (%)
Give your result in % as a bare value.

INSERT INTO measurements (sample_smiles, observed_measurement) VALUES
  ('CC1(C)N=c2cc3c(cc2N1c1ccc(Cl)cc1)=Nc1ccccc1N3c1ccc(Cl)cc1', 46.5);

growth for N=C(N)Sc1cccc[n+]1[O-] ?
21.8

Look up growth for this compound: O=C(c1ccccc1)N(CCCl)C(=O)N(CCCl)C(=O)c1ccccc1
108

---

Test system: HS 578T breast
MEASUREMENT DESCRIPTION: NCI-60 one-dose screen, 48 h (100 = growth as untreated, 0 = no growth, -100 = all killed)
MEASUREMENT CONTEXT: 10 µM unless noted
About 83,000 compounds went through this panel and 20% of them were active in at least one assay; those are over-represented in the sample as a whole.
METRIC NAME: growth (%)
Dear colleague, please return just the value in %, with no unit written.

INSERT INTO assay_data (molecule, system_name, metric_name, observed_measurement) VALUES
  ('CC(C)(C)c1ccc(CCO)cc1', 'HS 578T breast', 'growth', 135),
  ('COc1ccc2c(c1OC)OCC(CN(C)C)C2=O (stereo not drawn)', 'HS 578T breast', 'growth', 106),
  ('Oc1ccc2c(c1)CCc1ccccc1-2', 'HS 578T breast', 'growth', 96.8),
  ('O=C(C[P+](c1ccccc1)(c1ccccc1)c1ccccc1)c1ccccc1', 'HS 578T breast', 'growth', 96.9),
  ('Oc1c(C(Nc2ccccc2)c2ccccc2)ccc2cccnc12 (stereo not drawn)', 'HS 578T breast', 'growth', 70.4),
  ('O=C1/C(=C/c2ccccn2)CCc2ccccc21', 'HS 578T breast', 'growth', 98.1),
  ('c1ccc(-c2cccc(-c3ccccn3)n2)nc1', 'HS 578T breast', 'growth', 67),
  ('O=C1C=CC(=O)N1c1cccc2c1CCCC2', 'HS 578T breast', 'growth', 114);

Now consider the entry below.
Which growth value belongs to CC(C)(C)CC(C)(C)c1ccc(OCCOCCSC(=N)N)cc1 ?
33.9

---

Test system: HS 578T breast
MEASUREMENT DESCRIPTION: NCI-60 one-dose screen, 48 h
MEASUREMENT CONTEXT: 10 µM unless noted
Protocol: Growth inhibition of the HS 578T human tumor cell line is measured as a screen for anti-cancer activity. Cells are grown in 96 well plates and exposed to the test compound for 48 hours. Compounds are tested at a single concentration, which is 10^-5 M for most compounds. The reported endpoint is percent growth (GI% or GIPRCNT), where numbers from 0 - 100% represent growth inhibition, and numbers from -100% - 0 represent cell death. For example, a value of 40 represents 60% growth inhibition. […]
Compounds without any hit were thinned out: in the full panel of roughly 83,000, 20% have a hit. Activity calls are given as the source filed them. Rule for the calls: active = growth percent below 10; inactive = the rest.
Respond with a class label; see active, inactive

The following compounds have reported results that may help.
INSERT INTO assay_data (compound, system_name, answer_label) VALUES
  ('CCOc1ccc(C(CN2CCOCC2)C(C)=O)cc1OC (stereo not drawn)', 'HS 578T breast', 'inactive'),
  ('OC(Cc1cc(CC(O)(C(F)(F)F)C(F)(F)F)nc(CC(O)(C(F)(F)F)C(F)(F)F)c1)(C(F)(F)F)C(F)(F)F', 'HS 578T breast', 'active'),
  ('CC(CSc1n[nH]c(=S)s1)c1ccccc1 (stereo not drawn)', 'HS 578T breast', 'inactive'),
  ('Cc1onc(-c2ccccc2)c1C(=O)N/N=C/c1cc(Cl)cc(Cl)c1O', 'HS 578T breast', 'inactive');

Assay result, entry COc1ccc(/C=C2/C(=O)ON=C2C)cc1 — outcome?
inactive

Tell me the recorded outcome of this test for O=C/C=C/c1ccc([N+](=O)[O-])cc1 .
inactive

Look up the recorded call for O=[N+]([O-])c1ccc2c(c1)Cc1ccccc1-2 in this test.
inactive

---

Tested on: SK-MEL-2 melanoma
MEASUREMENT DESCRIPTION: NCI-60 one-dose screen, 48 h (100 = growth as untreated, 0 = no growth, -100 = all killed)
MEASUREMENT CONTEXT: 10 µM unless noted
The panel holds about 83,000 compounds, 20% with a hit somewhere; the sample as a whole holds those more often.
We begin with a simple list: items and their reported growth.
Give the quantity in %, number only.

INSERT INTO assay_data (compound, readout_unit, observed_measurement) VALUES
  ('Oc1ccc2ccccc2c1N=Nc1nccs1', '%', 153),
  ('CCOC(=O)C1(C)CCCC1N (stereo unspecified)', '%', 113),
  ('CC1(C)N=c2cc3c(cc2N1c1ccc(Cl)cc1)=Nc1ccccc1N3c1ccc(Cl)cc1', '%', -1.35),
  ('CCCCCCCCCCCC[N+]1(CCCCCCCCCCCC)CCCC(C)C1 (stereo unspecified)', '%', -96.5);

Can you share its growth? I mean this compound: C(=N\Nc1ccc2ccccc2n1)/c1ccccn1
39.5

Any idea what growth was measured for CN(C)c1ccc(C(=C2C=CC(=[N+](C)C)C=C2)c2ccc(N(C)C)cc2)cc1 ?
-57.8

Please give the measured growth for this compound: O=C1CSC(=S)N1Cc1cccnc1
85.8

Can you look up the measured growth of [Cl-].[Rh+3].c1ccc(-c2ccnc3c2ccc2c(-c4ccccc4)ccnc23)cc1.c1ccc(-c2ccnc3c2ccc2c(-c4ccccc4)ccnc23)cc1.c1ccc(-c2ccnc3c2ccc2c(-c4ccccc4)ccnc23)cc1 for me?
95.9

Recorded growth for CCOC(=O)c1[nH]c(C#N)c(C(=O)OCC)c1C , please?
104

If you can, please state the reported growth value of Fc1ccc(NCCS)cc1 .
102

growth lookup needed for CCCCCCCCCCCCCCCCCC[S+](C)CC (stereo unspecified) , thanks.
48.1

---

Tested on: SK-MEL-28 melanoma
MEASUREMENT DESCRIPTION: NCI-60 one-dose screen, 48 h (100 = growth as untreated, 0 = no growth, -100 = all killed)
MEASUREMENT CONTEXT: 10 µM unless noted
This is part of a sample that, as a whole, favours compounds with a hit. Of some 83,000 tested, about 20% had one in any assay.
METRIC NAME: growth (%)
Express your answer in %, writing the number without its unit.

Field: example entries. Status: answers known.
INSERT INTO assay_data (sample_smiles, observed_measurement) VALUES
  ('CC1(C)CCCC2=C1C(=O)N(SC(Cl)(Cl)Cl)C2=O', 99.4),
  ('O/N=C1\c2ccccc2-c2ccc(F)cc21', 111),
  ('CCC(=O)c1cc([N+](=O)[O-])c(Br)s1', 110),
  ('CN(C)CC(C)(CN(C)C)C(=O)/C=C/c1c(Cl)cccc1Cl', 4.32),
  ('Cc1cc2nc(CC(=O)c3ccncc3)c(=O)[nH]c2cc1C', 109);

Requested read-out: growth. Entry: CCOc1ccc(Nc2nc3c(s2)C(=O)c2ccccc2C3=O)cc1
106

Request the reported growth associated with Cc1cc(C(=O)c2ccc(Cl)cc2)ccc1O
105

Using the record for NC(=S)Nc1ccc2c(c1)Cc1ccccc1-2 , report its growth.
103

So what's the measured growth for this one? CSc1nc(C)c(C(=O)CCN2CCN(c3ccccn3)CC2)s1
106

Returns the measured growth for the input compound. Input: CN(C)c1ccc(/C=C/c2sc3ccc4ccccc4c3[n+]2C)cc1
-56.6

What measured growth goes with Cc1nc(Sc2nc3ccc([N+](=O)[O-])cc3s2)sc1C ?
27.8

Can you look up the measured growth of CCCCCCCCCCCCCCCCSC(=NCC)NCC for me?
43
